assay-system: BACE (Homo sapiens (Human), UniProt P56817)
Sequence (P56817 46-501, species assumed): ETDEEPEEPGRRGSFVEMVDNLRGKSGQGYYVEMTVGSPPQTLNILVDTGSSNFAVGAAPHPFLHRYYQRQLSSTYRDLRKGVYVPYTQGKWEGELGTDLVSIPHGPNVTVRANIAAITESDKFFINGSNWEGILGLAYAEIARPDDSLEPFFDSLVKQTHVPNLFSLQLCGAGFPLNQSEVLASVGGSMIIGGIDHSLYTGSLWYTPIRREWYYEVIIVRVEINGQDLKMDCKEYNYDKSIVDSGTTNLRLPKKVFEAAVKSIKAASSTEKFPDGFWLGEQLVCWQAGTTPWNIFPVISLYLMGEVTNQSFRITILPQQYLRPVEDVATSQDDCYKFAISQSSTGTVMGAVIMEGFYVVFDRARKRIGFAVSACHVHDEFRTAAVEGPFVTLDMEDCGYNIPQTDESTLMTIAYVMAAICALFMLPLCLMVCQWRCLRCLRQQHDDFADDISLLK
assay-explanation: In vitro BACE cell-based assay (Aβ40 in conditioned medium, sandwich ELISA)
property-measured: IC50 (µM)
Give a bare numeral; the unit µM is implied.

Problem: Look up IC50 for this compound: COCCC(=O)Nc1ccc(F)c([C@@]2(C(F)F)N=C(N)O[C@@H]3C[C@@H]32)c1 [Example 247]
Result: 4.34

Problem: Similarly, Cc1cc(C(F)(F)F)cnc1C(=O)Nc1ccc(F)c([C@@]2(C(F)F)N=C(N)O[C@@H]3C[C@@H]32)c1 [Example 188] ?
Result: 0.0279

Problem: Similarly, NC1=N[C@@](c2cc(NC(=O)c3ccc(-c4ccccc4)cn3)ccc2F)(C(F)F)[C@H]2C[C@H]2O1 [Example 291] ?
Result: 1.87

Problem: Similarly, NC1=N[C@](CF)(c2cc(Nc3nccc4cc(Cl)cnc34)ccc2F)[C@H]2C[C@H]2O1 [Example 345] ?
Result: 0.0543

Where these numbers come from: patent US9085576B2
